target: Peroxisome proliferator-activated receptor alpha (Homo sapiens); assay: Binding affinity to PPARalpha in human MIO-M1 cells assessed as increase in thermal stability preincubated for 3 hrs followed by exposure to 45.5 degree C for 10 mins by CETSA; type: cell-based
Sequence (Q07869 whole entry): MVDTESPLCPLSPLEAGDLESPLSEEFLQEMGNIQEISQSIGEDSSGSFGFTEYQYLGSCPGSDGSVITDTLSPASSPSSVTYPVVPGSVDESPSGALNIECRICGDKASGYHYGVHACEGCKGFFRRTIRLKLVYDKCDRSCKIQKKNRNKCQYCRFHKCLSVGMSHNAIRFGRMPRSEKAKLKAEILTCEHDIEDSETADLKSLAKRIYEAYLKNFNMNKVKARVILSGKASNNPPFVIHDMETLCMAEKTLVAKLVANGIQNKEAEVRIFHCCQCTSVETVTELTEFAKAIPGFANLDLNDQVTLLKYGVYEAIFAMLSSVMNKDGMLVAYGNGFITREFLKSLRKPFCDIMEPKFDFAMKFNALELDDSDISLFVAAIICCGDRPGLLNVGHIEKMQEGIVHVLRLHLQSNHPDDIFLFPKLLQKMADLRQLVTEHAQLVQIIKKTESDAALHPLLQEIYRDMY
Here, each record is paired with measured pEC50 data.
Keep it numeric: pEC50 is minus log10 of the concentration in mol/L.

>>> observed_result("Cc1cc(CNc2cccc(C(=O)O)c2)ccc1OCc1ccc(F)cc1")
7.03

Problem: Item under review: COc1ccc(COc2ccc(CNc3cccc(C(=O)O)c3)cc2)cc1 . Reported pEC50?
Result: 6.52

* * *

target: Peroxisome proliferator-activated receptor alpha (Homo sapiens) (UniProt Q07869); experiment: Agonist activity at human PPARalpha expressed in nonhuman mammalian cells assessed as maximal increase in receptor transcriptional activity incubated for 22 to 24 hrs by luciferase reporter gene assay relative to GW590735; format: cell-based
Threshold 0.6: fold change (FC) strictly smaller gives Met, otherwise Not met.

>>> assigned_class("CS(=O)(=O)Nc1cccc(NCc2ccc(OCc3ccc(F)cc3)cc2)c1")
"Met"
>>> assigned_class("CC(C)(Sc1cccc(NCc2ccc(OCc3ccc(F)cc3)cc2)c1)C(=O)O")
"Not met"
>>> assigned_class("O=C(O)c1cc(F)cc(NCc2ccc(OCc3ccc(F)cc3)cc2)c1")
"Not met"
>>> assigned_class("OB(O)c1cccc(NCc2ccc(OCc3ccc(F)cc3)cc2)c1")
"Met"
>>> assigned_class("O=C(O)c1cccc(NCc2ccc(OCc3ccc(I)cc3)cc2)c1")
"Not met"

Problem: In the record for Cc1cc(CNc2cccc(C(=O)O)c2)ccc1OCc1ccc(Br)cc1 , is fold change (FC) less than 0.6?
Result: Not met

Problem: Param item: Cc1cc(CNc2cc(F)cc(C(=O)O)c2)ccc1OCc1ccc(F)cc1
Result: Not met
